- EXPERIMENTAL TARGET: T1, cyno FcRn/b2M (cyno, UniProt Q8SPV9 24-297; Q8SPW0 21-119, biotinylated)
- T1 construct: bought recombinant biotinylated protein (Immunitrack ITF05 or ACRO FCM-C82W5); also called cFcRn; cFcRn/cb2M
- T1 sequence (Q8SPV9 24-297 limits assumed, chain 1 of 2): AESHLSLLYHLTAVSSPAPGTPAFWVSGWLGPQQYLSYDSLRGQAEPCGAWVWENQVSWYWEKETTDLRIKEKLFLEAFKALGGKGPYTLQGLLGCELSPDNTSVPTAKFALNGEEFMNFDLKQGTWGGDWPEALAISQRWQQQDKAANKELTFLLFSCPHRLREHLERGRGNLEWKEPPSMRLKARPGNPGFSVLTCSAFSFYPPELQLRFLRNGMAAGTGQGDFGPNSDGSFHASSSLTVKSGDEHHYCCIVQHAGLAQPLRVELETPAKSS
- T1 sequence (Q8SPW0 21-119 limits assumed, chain 2 of 2): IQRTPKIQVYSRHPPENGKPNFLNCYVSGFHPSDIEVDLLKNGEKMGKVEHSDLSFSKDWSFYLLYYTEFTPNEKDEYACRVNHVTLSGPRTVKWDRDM
- METHOD DESCRIPTION: SPR pH 6.0;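 note: surface plasmon resonance kinetics at 25 °C, diluted periplasmic extracts injected over immobilized ligand surfaces, 120 s association then 600–3600 s dissociation, running buffer containing 150 mM NaCl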
REPORTED PROPERTY: koff (s⁻¹)

A: T0263018B11 S52aE (VHH, name in Kabat numbering, FLAG3-His6 tagged) VHH: EVQLVESGGGVVQPGGSLRLSCAASGFTFSSYAMYWVRQAPGKGLEWVSAISEGGGSTDYADSVKGRFTISRDNSKNTLYLQMNSLRPEDTALYYCAADTLYTSLTWYSYWGQGTLVTVSS
B: T0263018B11 S56E (VHH, name in Kabat numbering, FLAG3-His6 tagged) VHH: EVQLVESGGGVVQPGGSLRLSCAASGFTFSSYAMYWVRQAPGKGLEWVSAISSGGGETDYADSVKGRFTISRDNSKNTLYLQMNSLRPEDTALYYCAADTLYTSLTWYSYWGQGTLVTVSS
## Input Rank A against B by their koff values and give the higher one. Please reply using the label of the selected record.
## Output B
(B: 0.0019 s⁻¹, A: 0.00077 s⁻¹)

Provenance of the data: patent US20240132624A1
